Where do these numbers come from? They come from ChEMBL document CHEMBL1201862.

# System: NCI-H522
# assay_info: NCI tumour cell line growth inhibition, 48 h
Activity calls are given as the source filed them. Cut-off read from the data, not from the text of the source: active = GI50 up to about 1.1 µM and inactive = higher.
Choose the fitting class; nothing outside True (active), False (inactive) is accepted.

# example entries with known answers
- compound: "CCC1c2[nH]c3ccccc3c2C[C@H]2C(=O)NC(COC(C)(C)C)C(=O)N12 (stereo partly specified)"
  label_class: "False"
- compound: "CC(C)(C)c1cc(C2COC(=O)COCCOCC(=O)OCCOCCO2)cc(C(C)(C)C)c1O (stereo unspecified)"
  label_class: "False"

In: Field: outcome | Entry: O=[N+]([O-])c1cnccc1-n1nnc2ccccc21
Out: False

In: Field: outcome | Entry: COc1cc(/C=c2/c3ccccc3n3c2cc(-c2ccccc2)[n+]3C)cc(OC)c1OC
Out: False

In: Field: outcome | Entry: CC(C)C(=O)[C@@]1(C)SC[C@H]2CCN=C21
Out: False

In: Field: outcome | Entry: CC(=O)Nc1ccc(-c2nnc(SCC(=O)Nc3ccccc3C)o2)cc1
Out: False

In: Field: outcome | Entry: COc1cc([C@H]2Oc3cc(O)c4c(=O)cc(-c5ccc(O)cc5)oc4c3O[C@@H]2CO)ccc1O
Out: False
